# experiment notes: Test Example 2: rotigotine hydrochloride intravenous injection in rats (group D)
# Type: in vivo
# condition details: male, SD, rat, plasma, 0.72 mg/kg (calculated as rotigotine), rotigotine hydrochloride intravenous 2 ml/kg of 0.36 mg/ml injection, 1 h, read-out: Blood concentration in rats
endpoint name: concentration at 1 h (ng/mL)
Numbers only, in ng/mL.

concentration at 1 h measured on CCCN(CCc1cccs1)[C@H]1CCc2c(O)cccc2C1 = 12.1

###

# experiment notes: Test Example 2: rotigotine hydrochloride intravenous injection in rats (group D)
# Format: in vivo
# condition details: male, SD, rat, plasma, 0.72 mg/kg, rotigotine hydrochloride intravenous 2 ml/kg of 0.36 mg/ml injection, 0.5 h, read-out: Blood concentration in rats
endpoint name: concentration at 0.5 h (ng/mL)
Answers are plain numbers, in ng/mL.

concentration at 0.5 h measured on CCCN(CCc1cccs1)[C@H]1CCc2c(O)cccc2C1 = 29

###

# experiment notes: Test Example 2: rotigotine hydrochloride intravenous injection in rats (group D)
# Format: in vivo
# condition details: male, SD, rat, plasma, 0.72 mg/kg, rotigotine hydrochloride intravenous 2 ml/kg of 0.36 mg/ml injection, 0.05 h, read-out: Blood concentration in rats
endpoint name: concentration at 0.05 h (ng/mL)
Numbers only, in ng/mL.

concentration at 0.05 h measured on CCCN(CCc1cccs1)[C@H]1CCc2c(O)cccc2C1 = 82.5

###

# experiment notes: Test Example 2: rotigotine hydrochloride intravenous injection in rats (group D)
# Type: in vivo
# condition details: male, SD, rat, plasma, 0.72 mg/kg, rotigotine hydrochloride intravenous 2 ml/kg of 0.36 mg/ml injection, 4 h, read-out: Blood concentration in rats
endpoint name: concentration at 4 h

concentration at 4 h measured on CCCN(CCc1cccs1)[C@H]1CCc2c(O)cccc2C1 [Rotigotine] = 0.99 ng/mL

###

# experiment notes: Test Example 2: rotigotine hydrochloride intravenous injection in rats (group D)
# Assay type: in vivo
# condition details: male, SD, rat, plasma, 0.72 mg/kg, rotigotine hydrochloride intravenous 2 ml/kg of 0.36 mg/ml injection, 8 h, read-out: Blood concentration in rats
endpoint name: concentration at 8 h (ng/mL)
One number for each entry, in ng/mL.

concentration at 8 h measured on CCCN(CCc1cccs1)[C@H]1CCc2c(O)cccc2C1 = 0.16

###

# experiment notes: Test Example 2: rotigotine hydrochloride intravenous injection in rats (group D)
# Type: in vivo
# condition details: male, SD, rat, plasma, 0.72 mg/kg, rotigotine hydrochloride intravenous 2 ml/kg of 0.36 mg/ml injection, 0.17 h, read-out: Blood concentration in rats
# Experimental: Rotigotine hydrochloride: purity of 99.83% Experimental animals: Male SD rats (provided by Shandong Luye Pharma Group Ltd.), weighing 190-280 g, 12 rats in total, 3 rats in each group. Vehicle containing 1% of HPMC was prepared, and rotigotine oleate, rotigotine palmitate and rotigotine stearate were added to the vehicle respectively to provide 10 mg/ml of suspensions (calculated as rotigotine). […]
endpoint name: concentration at 0.17 h (ng/mL)
Numbers only, in ng/mL.

concentration at 0.17 h measured on CCCN(CCc1cccs1)[C@H]1CCc2c(O)cccc2C1 = 43.8
